Target: HIV-1 protease (wild-type, WT) (Human immunodeficiency virus type 1 group M subtype B)
Construct: purified HIV-1 protease (wild-type, WT)
Experiment: biochemical
Conditions: Table II; read-out: Ki
Procedure: The inhibition constants (Ki) for the compounds of the above examples were determined using purified HIV-1 protease (wild-type, WT) (Tables I, II and III). Ki is an inhibition constant of a given compound as derived by enzyme kinetics. A low Ki represents a high affinity of the compound for the enzyme, i.e., tight binding or low dissociation. […]
Kindly supply the reported Ki values for the records listed here.
Numbers only, in pM.

Guide cases for Ki, answers given:
Compound	Measured attribute	Test value
Cc1c(O)cccc1C(=O)N[C@@H](Cc1ccccc1)C[C@H](O)[C@H](Cc1ccccc1)NC(=O)c1ccccc1NC(=O)OCc1ccccn1	Ki	680
CC(C)(C)OC(=O)N[C@@H](Cc1ccccc1)C[C@H](O)[C@H](Cc1ccccc1)NC(=O)c1ccccc1NC(=O)OCc1ccccn1	Ki	850

Would you kindly look at the next entry?
Return value of Ki for input CC(C)C(NC(=O)OCc1ccccn1)C(=O)N[C@@H](Cc1ccccc1)C[C@H](O)[C@H](Cc1ccccc1)NC(=O)c1ccccc1NC(=O)OCc1ccccn1 (stereo partly drawn) , no commentary.
34
